target: Vent(exo−) DNA polymerase (Thermococcus litoralis, UniProt P30317, D141A/E143A); assay: PEP termination assay; type: biochemical
pIC50: −log10 of the molar value.

{"COMPOUND": "O=[N+]([O-])c1ccccc1CNc1ncnc2c1ncn2[C@H]1C[C@H](O)[C@@H](COP(=O)(O)OP(=O)(O)OP(=O)(O)O)O1 [Compound IIIc]", "pIC50": 8.68}

====

target: AmpliTaqFS DNA polymerase (Thermus aquaticus, UniProt P19821, F667Y/G46D); test: PEP termination assay; format: biochemical, Thermus aquaticus YT-1
Sequence (P19821 whole entry G46D/F667Y): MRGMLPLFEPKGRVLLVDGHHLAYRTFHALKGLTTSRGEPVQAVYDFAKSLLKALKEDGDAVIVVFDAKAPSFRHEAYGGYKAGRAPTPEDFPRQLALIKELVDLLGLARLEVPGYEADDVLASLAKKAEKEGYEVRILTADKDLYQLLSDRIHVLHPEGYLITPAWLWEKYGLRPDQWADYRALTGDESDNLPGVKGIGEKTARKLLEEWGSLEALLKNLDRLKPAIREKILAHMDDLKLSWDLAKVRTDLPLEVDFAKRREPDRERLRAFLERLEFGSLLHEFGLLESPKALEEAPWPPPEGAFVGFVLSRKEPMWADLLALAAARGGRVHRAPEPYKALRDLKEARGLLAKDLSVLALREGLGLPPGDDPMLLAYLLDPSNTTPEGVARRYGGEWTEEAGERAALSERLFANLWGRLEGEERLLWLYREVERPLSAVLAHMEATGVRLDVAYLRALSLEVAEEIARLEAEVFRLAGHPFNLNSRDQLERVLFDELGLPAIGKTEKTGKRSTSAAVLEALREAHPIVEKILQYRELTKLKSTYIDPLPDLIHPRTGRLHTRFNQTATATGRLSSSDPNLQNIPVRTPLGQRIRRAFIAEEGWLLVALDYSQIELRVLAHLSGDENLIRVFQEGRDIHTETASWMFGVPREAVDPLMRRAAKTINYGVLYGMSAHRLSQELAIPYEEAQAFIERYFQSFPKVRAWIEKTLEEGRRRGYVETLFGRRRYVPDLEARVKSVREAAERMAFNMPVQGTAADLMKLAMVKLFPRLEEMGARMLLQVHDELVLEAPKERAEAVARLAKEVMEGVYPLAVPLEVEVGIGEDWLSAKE

{"COMPOUND STRING": "O=[N+]([O-])c1ccccc1CNc1ncnc2c1ncn2[C@H]1C[C@H](O)[C@@H](COP(=O)(O)OP(=O)(O)OP(=O)(O)O)O1", "IC50 [nM]": 350}
